The reported numbers originate from patent US20140163012A1.

pKi: −log10 of the molar value. Where a name gives a salt, the structure may show the parent alone.
Parameter 'readout' = pKi; parameter 'system' = human MCH-1 receptor (Homo sapiens).
Sequence (Q99705 whole entry): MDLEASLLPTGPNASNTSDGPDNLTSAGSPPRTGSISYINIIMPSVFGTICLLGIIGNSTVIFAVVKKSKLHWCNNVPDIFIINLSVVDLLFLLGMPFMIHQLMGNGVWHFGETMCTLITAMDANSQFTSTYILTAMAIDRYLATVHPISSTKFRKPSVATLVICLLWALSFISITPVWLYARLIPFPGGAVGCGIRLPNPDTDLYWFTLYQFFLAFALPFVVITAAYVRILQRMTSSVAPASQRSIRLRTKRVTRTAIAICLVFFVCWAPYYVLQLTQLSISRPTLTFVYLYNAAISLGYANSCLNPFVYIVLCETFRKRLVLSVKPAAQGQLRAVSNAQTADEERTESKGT
Outcome Measure: pKi

O=C1CN(CCc2ccc(Cl)cc2)CCN1c1ccc2c3c(oc2c1)CCNC3 [Example 87, hydrochloride]
7.24
O=c1cc(OCc2ccccc2)ccn1-c1ccc2c3c(oc2c1)CC1CCC3N1 (centres unmarked) [Example 128, hydrochloride]
7.96
O=c1cc(CCc2ccc(F)cn2)ccn1-c1ccc2c3c(sc2c1)CNCC3 [Example 126, hydrochloride]
7.70
Cl.O=C1CN(CCc2ccc(Cl)cn2)CCN1c1ccc2c3c(oc2c1)CCNC3 [Example 91, hydrochloride]
7.08
O=c1cc(-c2ccc(C(F)(F)F)cc2)ccn1-c1ccc2c3c(oc2c1)CCCNC3 [Example 48, hydrochloride]
8.35
COc1ccc(-c2ccn(-c3ccc4c5c(oc4c3)CCNC5)c(=O)c2)c(F)c1.Cl [Example 111, hydrochloride]
7.80
Cl.O=c1cc(OCc2ccc(C(F)(F)F)nc2)ccn1-c1ccc2c3c(oc2c1)CCNC3 [Example 52, hydrochloride]
7.14
O=c1cc(OCc2ccccc2)ccn1-c1ccc2c3c(oc2c1)CCN(CCF)C3 [Example 92, hydrochloride]
7.60

P = C[C@@H]1NCCc2oc3cc(-n4ccc(OCc5ccccc5)cc4=O)ccc3c21 [Example 33, hydrochloride]
Q = O=C1CN(CCc2ccc(Cl)cc2)CCN1c1ccc2c3c(oc2c1)CCNCC3 [Example 99, hydrochloride]
### Prompt // compare: P vs Q , metric pKi, want the smaller Response format: the label of the selected entry.
### Response Q
(Q: 7.01, P: 8.22)

A = CCN1CCc2oc3cc(-n4ccc(OCc5ccccc5)cc4=O)ccc3c2C1
B = C[C@@H]1NCCc2oc3cc(-n4ccc(OCc5ccccn5)cc4=O)ccc3c21 [Example 35, hydrochloride]
C = Cl.O=c1cc(OCc2ccc(F)cn2)cnn1-c1ccc2c3c(oc2c1)CCNC3 [Example 50, hydrochloride]
### Prompt Please rank these compounds by pKi in descending order. In plain terms: list the labels in the order you were asked to.
### Response A, C, B

----------
// values below are reported melting point

// below: answered molecules
Cl.O=c1cc(OCc2ccccc2)ccn1-c1ccc2sc3c(c2c1)CNCC3 [Example 67]
245 to 247 °C
Cl.O=C1CN(CCc2ccc(F)cn2)CCN1c1ccc2c3c(oc2c1)CCNC3 [Example 70]
203 to 209 °C

melting point reading for Cl.O=c1cc(OCc2ccc(F)cn2)ccn1-c1ccc2sc3c(c2c1)CNCC3 [Example 68] : 165 to 167 °C
